// protein stability index lookup, one value per entry
B1: NP_116010.1 (parent)
chain: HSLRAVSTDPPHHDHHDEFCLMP

- Variants of: B1
- EXPERIMENT NOTES: protein stability index of a GFP-peptide fusion (GPS, HEK-293T) (PSI 1-6); higher = more stable;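 also: lentivirally expressed fusion library, cells FACS-sorted into six equal-sized GFP/DsRed ratio bins, PSI computed from sequencing read fractions per bin weighted by bin number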
- SETUP CONDITIONS: c terminus: native
Answer as a number with no unit attached.

Use these answered entries as a reference point.
GSLRAVSTDPPHHDHHDEFCLMP [H1G] = 3.41
TSLRAVSTDPPHHDHHDEFCLMP [H1T] = 3.55
HSLRAVSTDPPHTDHHDEFCLMP [H13T] = 2.46
HSLRAVSTDPPHYDHHDEFCLMP [H13Y] = 2.5
HSLRAVGTDPPHHDHHDEFCLMP [S7G] = 2.58

The recorded protein stability index for HKLRAVSTDPPHHDHHDEFCLMP [S2K] is 2.58

The recorded protein stability index for HSLRAVSMDPPHHDHHDEFCLMP [T8M] is 2.48

The recorded protein stability index for HSLRAVSTDPPHSDHHDEFCLMP [H13S] is 2.5

The recorded protein stability index for HSLRAVSTDPPHHDHHDEICLMP [F19I] is 2.2

The recorded protein stability index for HSLRAVRTDPPHHDHHDEFCLMP [S7R] is 2.36
